From: the supplement of paper PMC6555819

# Test system: RXRa DBDmut IVT, anti-RXR (DBD mutation: RXRa K156A/R161A, NR concentration 90 nM)
# Method: PBM binding z-score (relative to random genomic background probes); higher = stronger binding; sequences stand for … in GC…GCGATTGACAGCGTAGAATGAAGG
Would you mind labelling by PBM binding z-score? At or over 1 is 1 (yes), under is 0 (no).

[[record]]
sequence_data = "GCTGCTAAGTCAACTGATGGTCAGCTAAAGCTCG"
study_target = "RXRa DBDmut IVT, anti-RXR (DBD mutation: RXRa K156A/R161A, NR concentration 90 nM)"
category = "0 (no)"

[[record]]
sequence_data = "ACAGACAGGAGAGTGAAGGTAACTCAGCTGGACG"
study_target = "RXRa DBDmut IVT, anti-RXR (DBD mutation: RXRa K156A/R161A, NR concentration 90 nM)"
category = "0 (no)"

[[record]]
sequence_data = "ATATGTAGGTAATCGGGTCATTCAGTTTGCGCAT"
study_target = "RXRa DBDmut IVT, anti-RXR (DBD mutation: RXRa K156A/R161A, NR concentration 90 nM)"
category = "1 (yes)"

[[record]]
sequence_data = "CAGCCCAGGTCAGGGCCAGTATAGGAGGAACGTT"
study_target = "RXRa DBDmut IVT, anti-RXR (DBD mutation: RXRa K156A/R161A, NR concentration 90 nM)"
category = "0 (no)"

[[record]]
sequence_data = "CCTACTGGTCCACGAAAGGTCATTGATTCAGTGA"
study_target = "RXRa DBDmut IVT, anti-RXR (DBD mutation: RXRa K156A/R161A, NR concentration 90 nM)"
category = "1 (yes)"

[[record]]
sequence_data = "TAGCCTAGGTCATTGGGCCAGTATTGTACGCATC"
study_target = "RXRa DBDmut IVT, anti-RXR (DBD mutation: RXRa K156A/R161A, NR concentration 90 nM)"
category = "1 (yes)"

[[record]]
sequence_data = "ACTTACGGGTCAACGAGGTTATAGGACGCGTATA"
study_target = "RXRa DBDmut IVT, anti-RXR (DBD mutation: RXRa K156A/R161A, NR concentration 90 nM)"
category = "1 (yes)"

[[record]]
sequence_data = "GCTTGTAGATCAGGGTTAAGAAAGACTAAGCTAA"
study_target = "RXRa DBDmut IVT, anti-RXR (DBD mutation: RXRa K156A/R161A, NR concentration 90 nM)"
category = "0 (no)"

[[record]]
sequence_data = "ATATCAAGGTGATCGTGAGGTCGTTGATACTAAC"
study_target = "RXRa DBDmut IVT, anti-RXR (DBD mutation: RXRa K156A/R161A, NR concentration 90 nM)"
category = "0 (no)"

[[record]]
sequence_data = "TCTCGGAGGACACTAAGGTCAGAGCTTTCCAGAG"
study_target = "RXRa DBDmut IVT, anti-RXR (DBD mutation: RXRa K156A/R161A, NR concentration 90 nM)"
category = "1 (yes)"

[[record]]
sequence_data = "CGTCCAAGGTCACTGCTAGGTCAGTGAAAGCATT"
study_target = "RXRa DBDmut IVT, anti-RXR (DBD mutation: RXRa K156A/R161A, NR concentration 90 nM)"
category = "1 (yes)"

[[record]]
sequence_data = "CGTGCTAGGTCAATGGTCAGCTAAAGCAGCTCGC"
study_target = "RXRa DBDmut IVT, anti-RXR (DBD mutation: RXRa K156A/R161A, NR concentration 90 nM)"
category = "1 (yes)"

[[record]]
sequence_data = "GCTTACGGGTCATAGGTTATAGCATGAATAGAAT"
study_target = "RXRa DBDmut IVT, anti-RXR (DBD mutation: RXRa K156A/R161A, NR concentration 90 nM)"
category = "1 (yes)"

[[record]]
sequence_data = "TCTGCTAGGTTAACGATGGTCAGCTAATCTGCTA"
study_target = "RXRa DBDmut IVT, anti-RXR (DBD mutation: RXRa K156A/R161A, NR concentration 90 nM)"
category = "0 (no)"

[[record]]
sequence_data = "TTACCAAGGTGAAAGATCGTTGATGCACGCCTTG"
study_target = "RXRa DBDmut IVT, anti-RXR (DBD mutation: RXRa K156A/R161A, NR concentration 90 nM)"
category = "0 (no)"

[[record]]
sequence_data = "CGAACTAGGTCATTGACAGGACACTGAATAGTAA"
study_target = "RXRa DBDmut IVT, anti-RXR (DBD mutation: RXRa K156A/R161A, NR concentration 90 nM)"
category = "1 (yes)"

[[record]]
sequence_data = "CATACAGGGTCAGCTAGGCTAGAGTAGGGACGGC"
study_target = "RXRa DBDmut IVT, anti-RXR (DBD mutation: RXRa K156A/R161A, NR concentration 90 nM)"
category = "1 (yes)"

[[record]]
sequence_data = "CGCCAAAGTTCAAGGTAACGTAACAGAAAGCAGC"
study_target = "RXRa DBDmut IVT, anti-RXR (DBD mutation: RXRa K156A/R161A, NR concentration 90 nM)"
category = "1 (yes)"

[[record]]
sequence_data = "TCGAGTAGGTTACCAATGGGCCATTCAGCTTTCT"
study_target = "RXRa DBDmut IVT, anti-RXR (DBD mutation: RXRa K156A/R161A, NR concentration 90 nM)"
category = "0 (no)"

[[record]]
sequence_data = "ATCTCTAGGTAACCCAGTTCAGTGAATGCCGAAC"
study_target = "RXRa DBDmut IVT, anti-RXR (DBD mutation: RXRa K156A/R161A, NR concentration 90 nM)"
category = "0 (no)"

[[record]]
sequence_data = "ATCTCTAGGTGACAAGTTCAGTGAAAGAGAGGAC"
study_target = "RXRa DBDmut IVT, anti-RXR (DBD mutation: RXRa K156A/R161A, NR concentration 90 nM)"
category = "0 (no)"

[[record]]
sequence_data = "GGAACGAGGGCAAATTTGATAGCATCTGTCGACG"
study_target = "RXRa DBDmut IVT, anti-RXR (DBD mutation: RXRa K156A/R161A, NR concentration 90 nM)"
category = "1 (yes)"

[[record]]
sequence_data = "GCAGACAGGTGAAACGCAGGAAACTCAGGGTGGC"
study_target = "RXRa DBDmut IVT, anti-RXR (DBD mutation: RXRa K156A/R161A, NR concentration 90 nM)"
category = "0 (no)"

[[record]]
sequence_data = "TCTGCTGGGTCAGTTGGTCAGCTAACGAGCTGCC"
study_target = "RXRa DBDmut IVT, anti-RXR (DBD mutation: RXRa K156A/R161A, NR concentration 90 nM)"
category = "0 (no)"

[[record]]
sequence_data = "GTACCAGGGTGAATAGGTCGTTGATGAGTAGGCG"
study_target = "RXRa DBDmut IVT, anti-RXR (DBD mutation: RXRa K156A/R161A, NR concentration 90 nM)"
category = "0 (no)"

[[record]]
sequence_data = "CGATCGAGGGCATGAGTTGATAGCAAATGCCGAT"
study_target = "RXRa DBDmut IVT, anti-RXR (DBD mutation: RXRa K156A/R161A, NR concentration 90 nM)"
category = "1 (yes)"

[[record]]
sequence_data = "CCTACCGGGCCAAGGTCATTGATCAGTCAAAGCA"
study_target = "RXRa DBDmut IVT, anti-RXR (DBD mutation: RXRa K156A/R161A, NR concentration 90 nM)"
category = "0 (no)"

[[record]]
sequence_data = "TCTTGTAGATCAATAGAGGATAAGAAAGTGCGCT"
study_target = "RXRa DBDmut IVT, anti-RXR (DBD mutation: RXRa K156A/R161A, NR concentration 90 nM)"
category = "0 (no)"

[[record]]
sequence_data = "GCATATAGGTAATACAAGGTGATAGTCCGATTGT"
study_target = "RXRa DBDmut IVT, anti-RXR (DBD mutation: RXRa K156A/R161A, NR concentration 90 nM)"
category = "0 (no)"

[[record]]
sequence_data = "GGAACGAGGGCAAGTTGATAGTAGAGTTTGATGG"
study_target = "RXRa DBDmut IVT, anti-RXR (DBD mutation: RXRa K156A/R161A, NR concentration 90 nM)"
category = "1 (yes)"

